Readings of polymerase ribozyme fitness (log ratio) for the listed variants
B1: TPR 5TU (parent)
chain: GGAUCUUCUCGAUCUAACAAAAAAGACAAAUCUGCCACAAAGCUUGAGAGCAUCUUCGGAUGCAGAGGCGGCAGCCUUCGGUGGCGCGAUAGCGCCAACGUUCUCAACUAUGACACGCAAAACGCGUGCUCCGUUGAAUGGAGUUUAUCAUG

Variants of: B1
Assay: polymerase ribozyme fitness, log enrichment relative to wild type (log ratio); higher = more active; in vitro selection for triplet polymerase activity
Fewer inactive variants are shown than the library holds.
Answer using only a numeral; do not append any unit.

Study these solved cases before continuing.
{"columns": ["variant annotation", "observed property", "quantitative result"],
 "data": [
  ["A21C U55G C93U G126U", "polymerase ribozyme fitness (log ratio)", -0.141],
  ["U56A C85U A142U", "polymerase ribozyme fitness (log ratio)", -1.06],
  ["A19U G141A", "polymerase ribozyme fitness (log ratio)", 0.304],
  ["C51U G58U U77G C96A", "polymerase ribozyme fitness (log ratio)", -4.18]
]}

*Q* Item under review: C8A G58C . Reported polymerase ribozyme fitness (log ratio)?
*A* -4.1

*Q* Item under review: C38U A52G A73U G152U . Reported polymerase ribozyme fitness (log ratio)?
*A* -4.12

*Q* Item under review: A40C C75U C116U A119C . Reported polymerase ribozyme fitness (log ratio)?
*A* -1.75

*Q* Item under review: U82G A98G G117A A122U . Reported polymerase ribozyme fitness (log ratio)?
*A* 0.376

*Q* Item under review: U13G C87U . Reported polymerase ribozyme fitness (log ratio)?
*A* -1.62

*Q* Item under review: C54U U146G . Reported polymerase ribozyme fitness (log ratio)?
*A* -0.826

*Q* Item under review: A19C C79U A98U . Reported polymerase ribozyme fitness (log ratio)?
*A* -1.81

*Q* Item under review: A24U G136U . Reported polymerase ribozyme fitness (log ratio)?
*A* -2.44
